Attribution: ChEMBL document CHEMBL3817819

Recorded IC50 for the following compounds
system.under.test: Gamma-butyrobetaine dioxygenase (Homo sapiens)
Sequence (O75936 whole entry): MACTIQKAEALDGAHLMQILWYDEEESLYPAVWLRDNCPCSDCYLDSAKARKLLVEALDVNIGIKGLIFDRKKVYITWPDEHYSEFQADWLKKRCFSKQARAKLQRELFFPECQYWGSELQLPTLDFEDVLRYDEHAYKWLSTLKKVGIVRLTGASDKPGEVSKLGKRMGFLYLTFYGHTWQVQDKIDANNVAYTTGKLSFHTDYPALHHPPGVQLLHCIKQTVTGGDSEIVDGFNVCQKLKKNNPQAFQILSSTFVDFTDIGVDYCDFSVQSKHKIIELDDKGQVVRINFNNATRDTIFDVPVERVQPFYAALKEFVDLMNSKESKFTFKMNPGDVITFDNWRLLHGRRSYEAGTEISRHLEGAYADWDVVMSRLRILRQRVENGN
assay.name: Inhibition of human BBOX using GBBF as substrate in presence of 2OG and Fe2+ using TBS-protected fluorescein probe by fluoride release assay
Give your result in µM as a bare value.

O=C(N[C@H](Cc1c[nH]c2ccccc12)C(=O)O)c1nc(Cl)c2ccccc2c1O    33

Okay, now this compound:
Enquiry: State its IC50 for this compound: "O=C(N[C@@H](Cc1c[nH]c2ccccc12)C(=O)O)c1nc(Cl)c2ccccc2c1O"
Return: 11

---

system.under.test: Gamma-butyrobetaine dioxygenase (Pseudomonas sp. (strain AK-1)) (UniProt P80193)
Sequence (whole entry): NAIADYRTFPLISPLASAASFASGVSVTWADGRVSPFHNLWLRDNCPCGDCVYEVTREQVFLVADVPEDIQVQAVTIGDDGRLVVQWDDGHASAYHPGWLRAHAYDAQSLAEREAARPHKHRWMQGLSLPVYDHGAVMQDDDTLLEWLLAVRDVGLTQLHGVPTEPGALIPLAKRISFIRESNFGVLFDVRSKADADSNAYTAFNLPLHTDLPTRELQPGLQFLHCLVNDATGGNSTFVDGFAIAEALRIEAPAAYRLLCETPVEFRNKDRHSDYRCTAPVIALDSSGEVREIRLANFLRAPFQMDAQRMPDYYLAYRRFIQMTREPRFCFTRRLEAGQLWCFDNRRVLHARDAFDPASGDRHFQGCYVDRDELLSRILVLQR
assay.name: Inhibition of 2OG binding to Pseudomonas sp. AK1 BBOX at 25 uM in presence of Mn2+ by 1H NMR GBB/2OG dual reporter displacement assay
Activity calls are given as the source filed them. The rule behind the calls is not given here.
Just give me one of these, please: active, inactive

Examples from the recorded data:
O=C(N[C@@H](Cc1c[nH]c2ccccc12)C(=O)O)c1nc(Cl)c2ccccc2c1O    active
CC(C)[C@H](NC(=O)c1nc(Cl)c2ccccc2c1O)C(=O)O    active
O=C(O)CNC(=O)c1nc(Cl)c2ccccc2c1O    active
CC(C)C[C@H](NC(=O)c1nc(Cl)c2ccccc2c1O)C(=O)O    active
CC(C)[C@@H](NC(=O)c1nc(Cl)c2ccccc2c1O)C(=O)O    inactive

Enquiry: Short answer needed: outcome of this test for "O=C(O)CC[C@@H](NC(=O)c1nc(Cl)c2ccccc2c1O)C(=O)O" ?
Return: inactive

Enquiry: Short answer needed: outcome of this test for "CC(C)C[C@@H](NC(=O)c1nc(Cl)c2ccccc2c1O)C(=O)O" ?
Return: inactive

Enquiry: Short answer needed: outcome of this test for "O=C(N[C@@H](Cc1ccccc1)C(=O)O)c1nc(Cl)c2ccccc2c1O" ?
Return: active

Enquiry: Short answer needed: outcome of this test for "O=C(O)C[C@H](NC(=O)c1nc(Cl)c2ccccc2c1O)C(=O)O" ?
Return: active

---

Recorded pIC50 for the following molecules
system.under.test: Gamma-butyrobetaine dioxygenase (Pseudomonas sp. (strain AK-1), UniProt P80193)
assay.name: Inhibition of Pseudomonas sp. AK1 BBOX using GBBF as substrate after 10 mins in presence of 2OG and Fe2+ using TBS-protected fluorescein probe by fluoride release assay
pIC50: −log10 of the molar value.

O=C(N[C@H](Cc1c[nH]c2ccccc12)C(=O)O)c1nc(Cl)c2ccccc2c1O    < 3.00
CC(C)C[C@@H](NC(=O)c1nc(Cl)c2ccccc2c1O)C(=O)O    < 3.00

Okay, now this molecule:
Enquiry: Enter recorded pIC50 with Gamma-butyrobetaine dioxygenase (Pseudomonas sp. (strain AK-1), UniProt P80193) for "CC(C)[C@@H](NC(=O)c1nc(Cl)c2ccccc2c1O)C(=O)O" here.
Return: < 3.00
